Test system: SK-OV-3 ovarian
Assay: NCI-60 one-dose screen, 48 h
Details: 10 µM unless noted
The panel holds about 83,000 compounds, 20% with a hit somewhere; the sample as a whole holds those more often. Calls of active or inactive are those of the source. The calls were made as follows: active = growth percent below 10; inactive = the rest.
Log the outcome using a class from active, inactive

Completed entries (count: 8):
INSERT INTO assay_data (molecule, group_label) VALUES
  ('Nc1cccc(-c2ccc(COc3ccc(CC4SC(=O)NC4=O)cc3)cc2)c1 (centres undefined)', 'inactive'),
  ('Cc1ccc(C)c2c1sc1nc(N3CCOCC3)c(C#N)c(=O)n12', 'inactive'),
  ('O=C(NCCNC(c1ccccc1)C(NCCNC(=O)c1ccccc1)c1ccccc1)c1ccccc1 (centres undefined)', 'inactive'),
  ('O=C(Cc1ccc(/C=C/C(=O)c2ncc[nH]2)cc1)Nc1cc(F)c(F)c(F)c1', 'inactive'),
  ('O=C(NC1CCC(Br)CC1)C1CCCC(S(=O)(=O)NC2CCCCC2)C1 (centres undefined)', 'active'),
  ('COc1ccccc1S(=O)(=O)Nc1ccc2c3c(cc(CCC(=O)NCCCCNc4cccc5c4C(=O)N(C4CCC(=O)NC4=O)C5=O)cc13)C(=O)N2C (centres undefined)', 'inactive'),
  ('c1ccc(-c2nc3ccccc3[nH]2)c(OCCCCCOc2ccccc2-c2nc3ccccc3[nH]2)c1', 'inactive'),
  ('CCOC(=O)c1cnn(CC(C)O)c1NC(=O)NCc1ccccc1C(F)(F)F (centres undefined)', 'inactive');

In this assay, the call recorded for `O=S(=O)(NCCNc1nccc(-c2c(-c3ccc(F)c(O)c3)nc3sccn23)n1)c1ccc(Cl)cc1` was what?
inactive

Write down the call the test reported for this molecule. Item: `COc1ccc2[nH]cc(-c3nonc3-c3c[nH]c4ccc(Br)cc34)c2c1`
inactive

Any idea what this test logged for `Nc1[nH]nc2nc(-c3ccccc3)n3c4ccccc4nc3c12` ?
inactive

Answer briefly: the call reported for C=C(C)[C@@H]1CC[C@]2(COC3CCCCO3)CC[C@]3(C)[C@H](CC[C@@H]4[C@@]5(C)C=C(C=O)C(=O)C(C)(C)[C@@H]5CC[C@]43C)[C@@H]12 (some centres undefined) in this assay.
active

Please let me know the test result on file for `c1cc(OCCN2CCCC2)ccc1CNc1ccc2nc(CCC3CCCCC3)[nH]c2c1` .
inactive

Assay outcome for Nc1ncnc2c1N=C(c1ccc(Cl)cc1)CC(c1cccc(Nc3ccnc4cc(Cl)ccc34)c1)N2 (centres undefined) : what was it?
inactive

----------
System: HCT-116 colon
Assay: NCI-60 one-dose screen, 48 h
Conditions: 10 µM unless noted
About 83,000 compounds went through this panel and 20% of them were active in at least one assay; those are over-represented in the sample as a whole. Activity calls are given as the source filed them. How the source made its calls: active means growth percent below 10; inactive means the rest.
// classify into active, inactive

INSERT INTO assay_data (molecule, target_or_system, group_label) VALUES
  ('Cn1c(C#N)ccc1-c1ccc(F)c(NC(=O)c2ccc(F)cc2)c1', 'HCT-116 colon', 'inactive');

Note: attention shifts to another entry.
# fetch the recorded call for `c1cc(OCCN2CCCCCC2)ccc1CNc1ccc2nc(CCC3CCCCC3)[nH]c2c1` here
inactive

----------
Test system: U251 CNS
Test: NCI-60 one-dose screen, 48 h
Settings: 10 µM unless noted
This is part of a sample that, as a whole, favours compounds with a hit. Of some 83,000 tested, about 20% had one in any assay. Active and inactive are the calls of the source. Rule for the calls: active = growth percent below 10; inactive = the rest.
Lab note: assign the record to one of active, inactive

Reference set, count: 6
INSERT INTO results (molecule, group_label) VALUES
  ('CCOC(=O)c1[nH]cc2c1CCc1sc(Nc3ccccn3)nc1-2', 'inactive'),
  ('Cc1ncc(C(=O)Nc2ccc(CN3CCN(C)CC3)c(C(F)(F)F)c2)cc1C#Cc1cnc(N)c2ccc(C#N)cc12', 'inactive'),
  ('COc1ccc2c(c1)oc1c(C)c3c(c(C)c12)C(=O)N(CCOS(C)(=O)=O)C3=O', 'inactive'),
  ('Nc1nc2ccccc2c2c(=O)c3cc(Cl)ccc3sc12', 'inactive'),
  ('Nc1c(Br)cc2c(c1Br)Cc1cc([N+](=O)[O-])ccc1-2', 'inactive'),
  ('CCOC(=O)C/C(=N\Nc1cc(=O)[nH]c2ccc(C)cc12)C(=O)OCC', 'inactive');

Test call for this molecule, please: `O=C(c1c[nH]c2ccccc12)c1n[nH]c(=S)n1-c1ccc([N+](=O)[O-])cc1`
inactive

What did this assay record as the result for `CCOc1ccc(/C=C/C(=O)c2cccc(OCCCOc3cccc(C(=O)/C=C/c4ccc(OCC)cc4)c3)c2)cc1` ?
inactive

Tell me the recorded outcome of this test for `c1cc(OCCCCCOc2cccc(-c3nc4ccccc4[nH]3)c2)cc(-c2nc3ccccc3[nH]2)c1` .
active

Could you please tell me the result logged for `CC(C)(C)OC(=O)CN1CCc2c(sc3ncnc(N4CCN(c5ccc(F)cc5)CC4)c23)C1` in this assay?
inactive

Outcome? `O=C(/C=C/c1ccccc1)c1ccc(-n2cc(CN3CCN(c4cc5c(cc4F)c(=O)c(C(=O)O)cn5C4CC4)CC3)nn2)cc1`
inactive

In this assay, the call recorded for CCN(CC)CCCC(Cc1ccccc1)Nc1c2ccc(Cl)cc2nc2ccc(OC)cc12 (stereo not given) was what?
active

Could you please tell me the result logged for `N#Cc1c(-c2ccccc2)nc2c(c(-c3ccc(Cl)cc3)nn2-c2ccccc2)c1-c1ccc([N+](=O)[O-])cc1` in this assay?
inactive

How was `Clc1ccc(Nc2ncc(Cc3cccc(Cl)c3Cl)s2)cc1` classified in this test?
inactive

What is the recorded call for this molecule in the test? `Cc1[nH]n(-c2cccc(Cl)c2)c(=O)c1/C=C1\C=c2ccccc2=CC1=O`
active

Could you please tell me the result logged for `Fc1cccc(-c2nc(-c3c[nH]c4ncccc34)cs2)c1` in this assay?
inactive

Recorded test call requested for `CCOC(=O)c1c(C)nc2ccccc2c1/C=C/c1ccc(F)cc1`
inactive

Call for entry `CSc1nc(-c2ccco2)c(C#N)c(=O)n1C` :
inactive

For `O=C1C=C(SCCO)C(=O)c2ccccc21` , what call appears in the results of this test?
active

Test call for this molecule, please: `O=S(O)c1cc(Cl)cc(Cl)c1OCc1ccccc1`
inactive
